Target: protease domain of Endotheliase-2 (ET2) (human) (UniProt Q9BYE2)
Sequence (Q9BYE2 other isoform, or with tags, fused parts or gaps limits assumed): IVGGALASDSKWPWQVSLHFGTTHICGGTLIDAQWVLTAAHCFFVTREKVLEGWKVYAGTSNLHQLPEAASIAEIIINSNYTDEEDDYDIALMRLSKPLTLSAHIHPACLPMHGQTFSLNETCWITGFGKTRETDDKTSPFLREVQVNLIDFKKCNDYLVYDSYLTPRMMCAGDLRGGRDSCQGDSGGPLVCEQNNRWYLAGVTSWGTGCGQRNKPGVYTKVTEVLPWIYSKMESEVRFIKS
Experiment: continuous in vitro enzyme assay, inhibition of ET2 protease activity by soluble Fab
metric.name: pKi
# log scale: pKi equals minus log10 of the concentration in mol/L

Could you share which pKi value was measured for Fab A2 (Fab, V domains shown) VH: EVQLLESGGGLVQPGGSLRLSCAASGFTFSRYRMYWVRQAPGKGLEWVSSISPSGGDTRYADSVKGRFTISRDNSQNTLYLQMNSLRAEDTAVYYCARGGPRGNKYYFDYWGQGTLVTVSS VL: DIQMTQSPSFLSAFVGDRVTITCRASQDIRSDLAWYQQTPGKAPKLLIYAASTLKDGAPSRFSGSGSGTEFTLTISSLHPEDLATYYCQHLNGHPAFGPGTKVNIQR ? 9.80
